Just for reference, ChEMBL document CHEMBL1143487 is where these values come from.

MIC values, listed per item
test system: Plasmodium falciparum; test: Minimum inhibitory concentration against Plasmodium falciparum; format: functional
Report the value in µg/mL with no unit label.

Some solved cases for reference:
Oc1ccc(-c2cc(-c3ccccc3)nc(N3CCCCC3)n2)cc1 = 2
COc1ccc(OC)c(-c2cc(-c3ccc(O)cc3)nc(N3CCN(C)CC3)n2)c1 = 0.25
Cc1ccc(-c2cc(-c3ccc(O)cc3)nc(N3CCCC3)n2)cc1 = 2
COc1ccc(OC)c(-c2cc(-c3ccc(O)cc3)nc(N3CCCCC3)n2)c1 = 1
COc1ccc(OC)c(-c2cc(-c3ccc(O)cc3)nc(N3CCN(c4ccccc4)CC3)n2)c1 = 2
COc1ccc(-c2cc(-c3ccc(O)cc3)nc(N3CCN(Cc4ccccc4)CC3)n2)cc1OC = 0.5
COc1ccc(OC)c(-c2cc(-c3ccc(O)cc3)nc(N3CCCC3)n2)c1 = 1
COc1ccc(-c2cc(-c3ccc(O)cc3)nc(N3CCCC3)n2)cc1 = 1
COc1ccc(OC)c(-c2cc(-c3ccc(O)cc3)nc(N)n2)c1 = 10
COc1ccc(OC)c(-c2cc(-c3ccc(O)cc3)nc(N3CCN(Cc4ccccc4)CC3)n2)c1 = 0.25

Entry `COc1ccc(-c2cc(-c3ccc(O)cc3)nc(N3CCN(C)CC3)n2)cc1` , Plasmodium falciparum data, MIC value: 0.5

Entry `Oc1ccc(-c2cc(-c3ccccc3)nc(N3CCN(c4ccccc4)CC3)n2)cc1` , Plasmodium falciparum data, MIC value: 10

Entry `Oc1ccc(-c2cc(-c3ccccc3)nc(N3CCN(Cc4ccccc4)CC3)n2)cc1` , Plasmodium falciparum data, MIC value: 1

Entry `COc1ccc(-c2cc(-c3ccc(O)cc3)nc(N3CCN(C)CC3)n2)cc1OC` , Plasmodium falciparum data, MIC value: 0.25

* * *

system: Plasmodium falciparum; test: Minimum inhibitory concentration against Plasmodium falciparum; type: functional
MIC values, listed per item
Report the value in µg/mL with no unit label.

COc1ccc(-c2cc(-c3ccc(O)cc3)nc(N3CCN(c4ccccc4)CC3)n2)cc1OC = 1
Cc1ccc(-c2cc(-c3ccc(O)cc3)nc(N3CCN(C)CC3)n2)cc1 = 1

Continue with the next molecule.
The molecule listed as `COc1ccc(-c2cc(-c3ccc(O)cc3)nc(N3CCCC3)n2)cc1OC` has a reported MIC of 1
